Field pIC50: reported value for Tyrosine-protein kinase JAK3 (Homo sapiens); entries drawn from several documents.
pIC50: −log10 of the molar value.

### Prompt Which value of pIC50 has been reported for Cc1ccc(NC(=O)c2cc(NCCN3CCOCC3)cc(C(F)(F)F)c2)cc1-c1ccc2c(c1)[nH]c1ncncc12 in the records?
### Response ≥ 6.30

### Prompt Which value of pIC50 has been reported for CCOC(=O)c1ccc(Nc2ncc3ccn(Cc4ccsc4)c3n2)cc1 in the records?
### Response 6.00 to 7.00

### Prompt Which value of pIC50 has been reported for C=CC(=O)N1CC(CNc2nc(Nc3cc(C)no3)nc3ccsc23)C1 in the records?
### Response 7.00 to 8.00

### Prompt Which value of pIC50 has been reported for CCCCNc1nc(Nc2ccc3c(c2)NC[C@H](O)CO3)ncc1C(N)=O in the records?
### Response > 8.00
